Tested on: rice (Oryza sativa) seeds, radicle
Experiment: Inhibition of radicle elongation of rice seeds
Conditions: 100 µg/mL; 48 h, 25 °C, dark; mean of triplicate ± SD
Observable: Inhibition Ratio (%) Seed Radicle Var. Lijiang

*Q* Record request: Inhibition Ratio (%) Seed Radicle Var. Lijiang value, item `CC[C@@]1(C)Oc2cc(ccc2O)[C@@H](O)[C@H](NC)C(=O)N[C@@H](C(C)C)C(=O)N[C@@H]1C(=O)NCC(=O)O`
*A* 79.92 ± 6.26 c %

*Q* Bench note: what Inhibition Ratio (%) Seed Radicle Var. Lijiang did CC[C@@]1(C)Oc2cc(c([S+]([O-])CCO)cc2O)[C@@H](O)[C@H](NC)C(=O)N[C@@H](C(C)C)C(=O)N[C@@H]1C(=O)NCC(=O)O (stereo partly drawn) show?
*A* 90.33%

*Q* Any idea what Inhibition Ratio (%) Seed Radicle Var. Lijiang was measured for CC[C@@]1(C)Oc2cc(c([S+]([O-])C[C@@H](O)C[C@H](N)C(=O)O)cc2O)[C@@H](O)[C@H](NC)C(=O)N[C@@H](C)C(=O)N[C@@H]1C(=O)NCC(=O)O (stereo partly drawn) ?
*A* 86.62 ± 1.98 b %

*Q* Could you share which Inhibition Ratio (%) Seed Radicle Var. Lijiang value was measured for CC[C@@]1(C)Oc2cc(c([S+]([O-])C[C@@H](O)C[C@H](N)C(=O)O)cc2O)[C@@H](O)[C@H](NC)C(=O)N[C@@H](C(C)C)C(=O)N[C@@H]1C(=O)NCC(=O)O (stereo partly drawn) ?
*A* 94.53 ± 0.36 a %

*Q* # query: Inhibition Ratio (%) Seed Radicle Var. Lijiang of entry `CC[C@@]1(C)Oc2cc(ccc2O)[C@@H](O)[C@H](NC)C(=O)N[C@@H](C)C(=O)N[C@@H]1C(=O)NCC(=O)O`
*A* 26.72 ± 5.84 h %

*Q* What value of measured Inhibition Ratio (%) Seed Radicle Var. Lijiang is listed for O=C(O)CNCP(=O)(O)O [Glyphosate, N-(phosphonomethyl)glycine, reference compound] ?
*A* 93.64 ± 2.66 a %

Data credit: paper PMC5331433
